Target: T1, human TSH receptor (full length), coated on tubes (human, UniProt P16473 22-764)
T1 construct: TSHR coated tubes as described in WO2004/050708A2; Exact preparation on the tubes is not detailed here; also called thyroid stimulating hormone receptor
Experiment: competition with 125I-K1-18 IgG on TSHR coated tubes; 0.3 µg/mL, diluted in HBD serum pool
assay.endpoint: Inhibition of binding (%)
Report only the number, with the unit % understood.

binder="K1-70 IgG (antibody, V domains shown) VH: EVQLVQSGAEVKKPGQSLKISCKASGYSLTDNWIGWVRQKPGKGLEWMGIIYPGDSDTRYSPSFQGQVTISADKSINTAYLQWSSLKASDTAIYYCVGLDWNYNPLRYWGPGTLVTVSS VL: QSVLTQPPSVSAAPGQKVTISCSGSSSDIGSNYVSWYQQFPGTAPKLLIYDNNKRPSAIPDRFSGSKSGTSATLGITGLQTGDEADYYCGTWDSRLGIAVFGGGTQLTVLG" experimental_result=82.2
binder="K1-18 IgG (antibody, V domains shown) VH: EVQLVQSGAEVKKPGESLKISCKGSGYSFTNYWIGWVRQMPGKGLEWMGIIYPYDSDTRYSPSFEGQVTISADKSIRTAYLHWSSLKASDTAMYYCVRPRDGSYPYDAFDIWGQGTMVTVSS VL: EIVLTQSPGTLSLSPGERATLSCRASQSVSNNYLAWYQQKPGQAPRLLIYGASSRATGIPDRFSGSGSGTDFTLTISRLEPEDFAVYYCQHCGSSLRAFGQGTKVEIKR" experimental_result=78.3
binder="K1-70 Fab (Fab, V domains shown) VH: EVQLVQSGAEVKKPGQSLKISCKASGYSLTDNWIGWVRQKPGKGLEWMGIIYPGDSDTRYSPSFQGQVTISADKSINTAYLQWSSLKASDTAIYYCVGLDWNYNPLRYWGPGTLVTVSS VL: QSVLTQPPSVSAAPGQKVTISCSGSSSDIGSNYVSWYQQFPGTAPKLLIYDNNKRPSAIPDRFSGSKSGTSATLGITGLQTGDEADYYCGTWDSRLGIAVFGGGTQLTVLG" experimental_result=88.1

Now for the binder whose Inhibition of binding (%) we want.
Request: For the binder K1-18 Fab (Fab, V domains shown) VH: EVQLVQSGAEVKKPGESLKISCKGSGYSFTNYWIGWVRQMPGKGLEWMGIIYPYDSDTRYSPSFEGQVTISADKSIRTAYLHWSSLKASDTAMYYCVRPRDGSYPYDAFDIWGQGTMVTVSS VL: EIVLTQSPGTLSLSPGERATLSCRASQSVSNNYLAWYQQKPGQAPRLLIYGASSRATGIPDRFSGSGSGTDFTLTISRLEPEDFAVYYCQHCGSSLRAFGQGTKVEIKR , what Inhibition of binding (%) is on record?
Result: 65.5

Taken from patent US20110300138A1.
